Target: SFRP-1 (Homo sapiens, UniProt Q8N474)
Sequence (Q8N474 32-314): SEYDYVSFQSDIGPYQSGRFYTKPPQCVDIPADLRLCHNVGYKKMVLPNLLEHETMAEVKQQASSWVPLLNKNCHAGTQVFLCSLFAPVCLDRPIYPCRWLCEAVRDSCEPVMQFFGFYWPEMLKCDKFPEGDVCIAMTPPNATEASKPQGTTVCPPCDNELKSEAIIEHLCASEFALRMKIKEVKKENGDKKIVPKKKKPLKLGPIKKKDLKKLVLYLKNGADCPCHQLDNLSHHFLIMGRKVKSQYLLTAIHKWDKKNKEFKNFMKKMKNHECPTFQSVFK
Assay: Cell-based assay for in vitro measurement of SFRP-1/SARP2 antagonist activity (U2OS cells co-transfected with 16x TCF-tk-Luciferase reporter, Wnt and hSFRP-1);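 further: U2OS cells co-transfected with a TCF-tk luciferase reporter, a Wnt vector, hSFRP-1 or empty vector and CMV-βgal, luciferase luminescence read in cell lysates alongside βgal activity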
Details: U2OS, read-out: Fold Induction with SFRP-1, U2OS cells, single dose 10 μM, luciferase reporter, fold induction over SFRP-1 control
OBSERVABLE: fold induction at 10 µM

* CC(C)c1ccc(S(=O)(=O)c2ccc(F)cc2)cc1S(=O)(=O)NC1CCN(C(=S)Nc2cccnc2)CC1 | 3
* O=C(NCCNS(=O)(=O)c1cc(S(=O)(=O)c2ccccc2)ccc1C(F)(F)F)c1ccncc1 | 3.2
* CCCc1ccc(S(=O)(=O)c2ccccc2)cc1S(=O)(=O)NC1CCNCC1 | 3
* CC(C)(C)c1ccc(C(=O)N2CCC(NS(=O)(=O)c3cc(S(=O)(=O)c4cccc(Cl)c4)ccc3C(F)(F)F)CC2)cc1 | 3.8
* Cc1ccc(S(=O)(=O)c2ccccc2)cc1S(=O)(=O)NCCC(=O)NC(C)(C)C | 1.5

[P] COC(=O)CN(C)CCNS(=O)(=O)c1cc(S(=O)(=O)c2ccccc2)ccc1C(F)(F)F
[Q] O=S(=O)(NCCO)c1cc(S(=O)(=O)c2ccccc2)ccc1Cl
[R] CC(C)c1ccc(S(=O)(=O)c2ccccc2)cc1S(=O)(=O)NCC(O)c1ccccc1 (stereo not shown)
Task for the reader: rank each entry by its fold induction at 10 µM, from the minimum upward. In your reply, arrange the labels in the requested order.
Q, P, R
(Q: 2, P: 2.9, R: 5)

[P] COC(=O)c1ccc(C(=O)N(C)CCNS(=O)(=O)c2cc(S(=O)(=O)c3ccccc3)ccc2C(F)(F)F)cc1
[Q] CC(C)COC(=O)N(C)CCNS(=O)(=O)c1cc(S(=O)(=O)c2ccccc2)ccc1C(F)(F)F
Which is greater in fold induction at 10 µM, the first item P or the second item Q ? Indicate your choice by writing its label.
P
(P: 3.6, Q: 2.5)
